For reference, IC50 measured on Cholinesterase (Homo sapiens, UniProt P06276):
Respond numerically; units are µM and should not be typed.

Consider the worked cases shown below.
* CC(C)=CCc1c(-c2ccc(O)cc2O)oc2c(CC=C(C)C)c(O)cc(O)c2c1=O | 1.7
* CC(C)=CC1Oc2cc(O)ccc2-c2oc3c4c(cc(O)c3c(=O)c21)OC(C)(C)C=C4 (stereo not given) | 1.7
* COc1cc(O)c(-c2cc(=O)c3c(O)cc(O)cc3o2)cc1C/C=C(\C)CCC=C(C)C | 11
* O=c1c(O)c(-c2ccc(O)c(O)c2)oc2cc(O)cc(O)c12 | 421
* COc1cc(O)c(C2CC(=O)c3c(O)cc(O)cc3O2)cc1C/C=C(\C)CCC=C(C)C (stereo not given) | 1.7
* CC(C)=CCC/C(C)=C/Cc1cc(C2CC(=O)c3c(O)cc(O)cc3O2)c(O)cc1O (stereo not given) | 1.7

Entry CC(C)=CCc1c(-c2ccc(O)cc2O)oc2c3c(cc(O)c2c1=O)OC(C)(C)C=C3 ; IC50 = 1.7

Entry CC1(C)C=Cc2c(cc(O)c3c(=O)c4c(oc23)-c2ccc(O)cc2OC(C(C)(C)O)C4)O1 (stereo not given) ; IC50 = 1.7

Entry CC(C)=CCC/C(C)=C/Cc1cc(-c2cc(=O)c3c(O)cc(O)cc3o2)c(O)cc1O ; IC50 = 16.2

Entry CC(C)(O)CCc1c(-c2ccc(O)cc2O)oc2c3c(cc(O)c2c1=O)OC(C)(C)C=C3 ; IC50 = 1.7
